Molecular target: Protein cereblon/Histone acetyltransferase p300 (Homo sapiens) (UniProt Q09472+Q96SW2)
Sequence (Q09472 2-2414 limits assumed): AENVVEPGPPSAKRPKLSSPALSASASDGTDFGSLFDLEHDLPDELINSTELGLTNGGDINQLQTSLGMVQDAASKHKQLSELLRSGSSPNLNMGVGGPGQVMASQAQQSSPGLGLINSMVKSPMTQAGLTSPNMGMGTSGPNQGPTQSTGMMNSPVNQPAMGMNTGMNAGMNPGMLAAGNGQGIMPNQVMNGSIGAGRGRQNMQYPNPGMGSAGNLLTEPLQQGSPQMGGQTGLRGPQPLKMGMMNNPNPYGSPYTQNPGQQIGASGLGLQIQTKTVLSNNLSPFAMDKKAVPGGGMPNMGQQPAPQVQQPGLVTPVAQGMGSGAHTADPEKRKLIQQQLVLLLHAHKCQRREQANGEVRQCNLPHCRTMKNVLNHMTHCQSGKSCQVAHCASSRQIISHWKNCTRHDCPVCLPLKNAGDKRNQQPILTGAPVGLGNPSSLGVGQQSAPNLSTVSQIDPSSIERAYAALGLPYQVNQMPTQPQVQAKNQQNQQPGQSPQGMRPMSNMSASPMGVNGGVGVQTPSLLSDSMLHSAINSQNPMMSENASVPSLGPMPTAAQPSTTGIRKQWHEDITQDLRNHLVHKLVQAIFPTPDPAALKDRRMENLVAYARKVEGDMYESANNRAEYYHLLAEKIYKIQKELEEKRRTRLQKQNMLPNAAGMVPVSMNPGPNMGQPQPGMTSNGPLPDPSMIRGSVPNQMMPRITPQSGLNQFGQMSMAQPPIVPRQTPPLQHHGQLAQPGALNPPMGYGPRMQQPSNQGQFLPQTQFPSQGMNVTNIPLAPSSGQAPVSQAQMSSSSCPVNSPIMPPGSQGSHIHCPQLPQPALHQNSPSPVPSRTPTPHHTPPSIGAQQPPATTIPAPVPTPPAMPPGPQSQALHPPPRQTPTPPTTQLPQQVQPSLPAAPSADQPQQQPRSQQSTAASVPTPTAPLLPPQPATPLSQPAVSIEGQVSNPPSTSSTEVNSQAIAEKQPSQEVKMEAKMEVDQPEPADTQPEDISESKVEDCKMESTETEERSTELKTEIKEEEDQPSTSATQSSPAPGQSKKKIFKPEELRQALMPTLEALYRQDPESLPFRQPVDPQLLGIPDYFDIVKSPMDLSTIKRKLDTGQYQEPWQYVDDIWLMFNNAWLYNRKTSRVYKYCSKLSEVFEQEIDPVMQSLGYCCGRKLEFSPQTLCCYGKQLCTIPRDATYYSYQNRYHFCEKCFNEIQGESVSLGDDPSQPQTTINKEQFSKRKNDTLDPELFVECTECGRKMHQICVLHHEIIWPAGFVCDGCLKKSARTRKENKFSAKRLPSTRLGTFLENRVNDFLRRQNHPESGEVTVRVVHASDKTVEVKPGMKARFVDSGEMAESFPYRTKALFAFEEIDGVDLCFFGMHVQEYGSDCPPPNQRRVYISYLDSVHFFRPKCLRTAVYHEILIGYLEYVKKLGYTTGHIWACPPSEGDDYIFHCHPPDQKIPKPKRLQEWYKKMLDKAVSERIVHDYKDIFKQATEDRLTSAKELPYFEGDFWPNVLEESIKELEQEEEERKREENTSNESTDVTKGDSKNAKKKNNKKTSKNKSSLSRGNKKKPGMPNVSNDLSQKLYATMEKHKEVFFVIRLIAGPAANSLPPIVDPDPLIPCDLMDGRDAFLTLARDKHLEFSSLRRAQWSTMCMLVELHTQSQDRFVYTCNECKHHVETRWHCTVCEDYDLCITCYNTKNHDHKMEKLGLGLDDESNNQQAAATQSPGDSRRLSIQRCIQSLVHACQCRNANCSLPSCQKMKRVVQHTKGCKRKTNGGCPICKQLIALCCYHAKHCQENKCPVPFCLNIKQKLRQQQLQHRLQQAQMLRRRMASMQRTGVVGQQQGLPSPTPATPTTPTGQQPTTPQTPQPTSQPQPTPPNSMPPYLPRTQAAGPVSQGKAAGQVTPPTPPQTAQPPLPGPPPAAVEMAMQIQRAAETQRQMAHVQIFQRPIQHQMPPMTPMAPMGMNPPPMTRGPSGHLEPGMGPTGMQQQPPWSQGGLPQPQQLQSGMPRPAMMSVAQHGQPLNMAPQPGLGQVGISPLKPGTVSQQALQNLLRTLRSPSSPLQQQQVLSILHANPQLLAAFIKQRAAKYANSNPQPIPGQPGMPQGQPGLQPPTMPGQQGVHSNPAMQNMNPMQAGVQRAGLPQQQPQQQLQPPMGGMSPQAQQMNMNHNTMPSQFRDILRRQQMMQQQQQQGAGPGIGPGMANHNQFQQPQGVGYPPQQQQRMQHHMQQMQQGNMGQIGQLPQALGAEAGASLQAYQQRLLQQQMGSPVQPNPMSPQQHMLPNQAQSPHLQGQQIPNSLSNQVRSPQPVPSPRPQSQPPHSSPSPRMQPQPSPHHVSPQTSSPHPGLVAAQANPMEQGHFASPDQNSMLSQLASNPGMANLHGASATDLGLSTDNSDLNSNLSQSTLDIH
Sequence (Q96SW2 whole entry partner): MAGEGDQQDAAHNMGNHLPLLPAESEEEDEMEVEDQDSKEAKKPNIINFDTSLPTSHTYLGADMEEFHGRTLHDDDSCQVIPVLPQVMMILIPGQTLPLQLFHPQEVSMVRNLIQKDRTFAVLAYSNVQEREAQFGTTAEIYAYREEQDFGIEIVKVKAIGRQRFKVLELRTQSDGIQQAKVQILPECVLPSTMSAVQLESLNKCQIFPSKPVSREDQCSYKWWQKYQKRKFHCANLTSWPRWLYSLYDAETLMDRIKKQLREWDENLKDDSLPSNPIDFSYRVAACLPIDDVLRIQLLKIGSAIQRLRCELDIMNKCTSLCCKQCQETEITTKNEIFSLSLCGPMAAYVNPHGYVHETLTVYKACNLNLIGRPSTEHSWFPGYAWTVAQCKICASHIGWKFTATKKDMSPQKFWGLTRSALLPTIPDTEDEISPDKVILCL
Assay: PROTAC activity at CRBN/HiBiT-tagged p300 in human HAP1 cells assessed as induction of p300 degradation by measuring maximal efficacy at 10 nM measured over 24 hrs by luminescence based analysis relative to control
Assay type: cell-based
Parameter measured: Emax (%)

Molecule	Units text	Emax
CNC(=O)N1CCc2c(c(N3CCCc4cc(-c5cnn(C)c5)c(C(F)F)cc43)nn2C2CCN(C(=O)CCOCCOCCOCCOCCOCCOCCNc3ccc4c(c3)C(=O)N(C3CCC(=O)NC3=O)C4=O)CC2)C1 (configuration not stated)	%	68
CNC(=O)N1CCc2c(c(N3CCCc4cc(-c5cnn(CC(=O)NCCOCCOCCOCCOCCOCCOCCNc6ccc7c(c6)C(=O)N(C6CCC(=O)NC6=O)C7=O)c5)c(C(F)F)cc43)nn2C2CCOCC2)C1 (configuration not stated)	%	19

[a] CNC(=O)N1CCc2c(c(N3CCCc4cc(-c5cnn(C)c5)c(C(F)F)cc43)nn2C2CCN(C(=O)CCOCCOCCOCCOCCNc3ccc4c(c3)C(=O)N(C3CCC(=O)NC3=O)C4=O)CC2)C1 (configuration not stated)
[b] CNC(=O)N1CCc2c(c(N3CCCc4cc(-c5cnn(CC(=O)NCCOCCNc6ccc7c(c6)C(=O)N(C6CCC(=O)NC6=O)C7=O)c5)c(C(F)F)cc43)nn2C2CCOCC2)C1 (configuration not stated)
Emax comparison. Which is larger, a or b ? // respond with label for picked entry
a
(a: 83%, b: 55%)

# credit: ChEMBL document CHEMBL5579809
